Observed log10(Ki), system Prothrombin (Bos taurus).
measured-attribute: log10(Ki) (log10 of the value in µM)

molecule	tested-system	log10(Ki)
NNC(N)c1ccc(C[C@H](NS(=O)(=O)c2ccc3ccccc3c2)C(=O)N2CCCCCC2)cc1 (some centres not stated)	Prothrombin (Bos taurus)	-2.82
CN(C(=O)[C@H](Cc1ccc(C(N)NN)cc1)NS(=O)(=O)c1ccc2ccccc2c1)C1CCCC1 (some centres not stated)	Prothrombin (Bos taurus)	-2.96
NNC(N)c1ccc(C[C@@H](NC(=O)CNS(=O)(=O)c2ccc3ccccc3c2)C(=O)N2CCCCC2)cc1 (some centres not stated)	Prothrombin (Bos taurus)	0.64
CCCCN(C)C(=O)[C@H](Cc1ccc(C(N)NN)cc1)NS(=O)(=O)c1ccc2ccccc2c1 (some centres not stated)	Prothrombin (Bos taurus)	-1.39
CNC(N)c1ccc(C[C@@H](NC(=O)CNS(=O)(=O)c2ccc3ccccc3c2)C(=O)N2CCCCC2)cc1 (some centres not stated)	Prothrombin (Bos taurus)	0.73
CN(C(=O)[C@H](Cc1ccc(C(N)NN)cc1)NS(=O)(=O)c1ccc2ccccc2c1)C1CC1 (some centres not stated)	Prothrombin (Bos taurus)	-0.61
NC(N)c1ccc(C[C@@H](NC(=O)CNS(=O)(=O)c2ccc3ccccc3c2)C(=O)N2CCCCC2)cc1	Prothrombin (Bos taurus)	-2.19
